- Target: Recombinant human Glo-I (rhGlo-I) (Homo sapiens, UniProt Q04760)
- Construct: purchased R&D Systems Corporation
- Protocol notes: In vitro Glo-I enzyme inhibition assay (spectrophotometric, 240 nm)
- Assay type: biochemical
- Applied conditions: concentration 1.25 µM, single replicates
Measure name: inhibition at 1.25 µM (%)

>  <Structure notation>
O=C(C=Cc1ccccc1)Nc1cccc2c1C(=O)c1ccccc1C2=O

>  <Measure name>
inhibition at 1.25 µM

>  <Units symbol>
%

>  <Experimental value>
10.2

$$$$

1. O=C(C=Cc1ccccc1)Nc1ccc2c(c1)C(=O)c1ccccc1C2=O
2. O=C(/C=C/c1ccc(O)c(O)c1)Nc1cccc2c1C(=O)c1ccccc1C2=O
3. O=C(/C=C/c1ccc(O)c(O)c1)Nc1ccc2c(c1)C(=O)c1ccccc1C2=O
Please list the entries, largest inhibition at 1.25 µM first. Write the labels out in the order the request specifies.
3, 2, 1
(3: 39.2%, 2: 12%, 1: 5.03%)

* * *

- Target: Recombinant human Glo-I (rhGlo-I) (Homo sapiens, UniProt Q04760)
- Construct: purchased R&D Systems Corporation
- Protocol notes: In vitro Glo-I enzyme inhibition assay (spectrophotometric, 240 nm)
- Type: biochemical
- Applied conditions: from the % inhibition curve, 0.625-10 µM; read-out: Calculated IC50
Measure name: IC50 (µM)

>  <Structure notation>
O=C(/C=C/c1ccc(O)c(O)c1)Nc1cccc2c1C(=O)c1ccccc1C2=O

>  <Units symbol>
µM

>  <Experimental value>
27.9

$$$$

I. O=C(C=Cc1ccccc1)Nc1cccc2c1C(=O)c1ccccc1C2=O
II. O=C(/C=C/c1ccc(O)c(O)c1)Nc1ccc2c(c1)C(=O)c1ccccc1C2=O
I need your help: which of the pair I , II has higher IC50? Select an item and report its label.
I
(I: 107 µM, II: 1.46 µM)

* * *

- Target: Recombinant human Glo-I (rhGlo-I) (Homo sapiens)
- Construct: purchased R&D Systems Corporation
- Sequence (Q04760 2-184 limits assumed): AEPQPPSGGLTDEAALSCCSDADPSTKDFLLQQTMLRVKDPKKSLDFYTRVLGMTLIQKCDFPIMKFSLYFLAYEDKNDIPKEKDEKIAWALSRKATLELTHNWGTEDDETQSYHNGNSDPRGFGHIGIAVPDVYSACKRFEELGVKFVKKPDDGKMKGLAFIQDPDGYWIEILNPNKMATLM
- Protocol notes: In vitro Glo-I enzyme inhibition assay (spectrophotometric, 240 nm)
- Type: biochemical
- Applied conditions: concentration 10 µM, single replicates
Measure name: inhibition at 10 µM (%)

>  <Structure notation>
O=C(C=Cc1ccccc1)Nc1ccc2c(c1)C(=O)c1ccccc1C2=O

>  <Experimental value>
40.4

$$$$

a. O=C(/C=C/c1ccc(O)c(O)c1)Nc1cccc2c1C(=O)c1ccccc1C2=O
b. O=C(/C=C/c1ccc(O)c(O)c1)Nc1ccc2c(c1)C(=O)c1ccccc1C2=O
c. O=C(C=Cc1ccccc1)Nc1cccc2c1C(=O)c1ccccc1C2=O
Please list the entries, largest inhibition at 10 µM first. Write the labels out in the order the request specifies.
b, a, c
(b: 97.5%, a: 33.4%, c: 22%)

* * *

- Target: Recombinant human Glo-I (rhGlo-I) (Homo sapiens, UniProt Q04760)
- Construct: purchased R&D Systems Corporation
- Sequence (Q04760 2-184 limits assumed): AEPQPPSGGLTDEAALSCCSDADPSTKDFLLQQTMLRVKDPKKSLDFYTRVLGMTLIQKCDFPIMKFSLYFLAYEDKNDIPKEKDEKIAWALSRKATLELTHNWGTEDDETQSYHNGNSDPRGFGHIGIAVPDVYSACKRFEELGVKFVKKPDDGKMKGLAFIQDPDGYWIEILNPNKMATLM
- Protocol notes: In vitro Glo-I enzyme inhibition assay (spectrophotometric, 240 nm)
- Assay type: biochemical
- Applied conditions: concentration 2.5 µM, single replicates
Measure name: inhibition at 2.5 µM (%)

Answered cases to consult:
>  <Molecule>
O=C(C=Cc1ccccc1)Nc1cccc2c1C(=O)c1ccccc1C2=O [MQ5]

>  <Units symbol>
%

>  <inhibition at 2.5 µM>
14.3

$$$$
>  <Molecule>
O=C(/C=C/c1ccc(O)c(O)c1)Nc1cccc2c1C(=O)c1ccccc1C2=O [MQ1]

>  <Units symbol>
%

>  <inhibition at 2.5 µM>
11.8

$$$$

P. O=C(C=Cc1ccccc1)Nc1ccc2c(c1)C(=O)c1ccccc1C2=O [MQ4]
Q. O=C(/C=C/c1ccc(O)c(O)c1)Nc1ccc2c(c1)C(=O)c1ccccc1C2=O [MQ3]
I need your help: which of the pair P , Q has higher inhibition at 2.5 µM? Select an item and report its label.
Q
(Q: 69.6%, P: 10.8%)

* * *

- Target: Recombinant human Glo-I (rhGlo-I) (Homo sapiens)
- Construct: purchased R&D Systems Corporation
- Sequence (Q04760 2-184 limits assumed): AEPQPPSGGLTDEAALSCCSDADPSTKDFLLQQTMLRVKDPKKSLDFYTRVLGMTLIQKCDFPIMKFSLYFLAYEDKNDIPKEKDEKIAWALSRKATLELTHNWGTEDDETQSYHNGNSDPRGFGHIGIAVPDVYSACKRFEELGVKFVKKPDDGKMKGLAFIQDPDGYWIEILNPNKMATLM
- Protocol notes: In vitro Glo-I enzyme inhibition assay (spectrophotometric, 240 nm)
- Format: biochemical
- Applied conditions: concentration 5 µM, single replicates
Measure name: inhibition at 5 µM (%)

>  <Structure notation>
O=C(/C=C/c1ccc(O)c(O)c1)Nc1cccc2c1C(=O)c1ccccc1C2=O

>  <Measure name>
inhibition at 5 µM

>  <Units symbol>
%

>  <Experimental value>
18.8

$$$$

a. O=C(/C=C/c1ccc(O)c(O)c1)Nc1ccc2c(c1)C(=O)c1ccccc1C2=O
b. O=C(C=Cc1ccccc1)Nc1ccc2c(c1)C(=O)c1ccccc1C2=O
c. O=C(C=Cc1ccccc1)Nc1cccc2c1C(=O)c1ccccc1C2=O
Please list the entries, largest inhibition at 5 µM first. Write the labels out in the order the request specifies.
a, b, c

Where do the numbers come from? From paper PMC11080515.
